These entries and their values trace back to patent US20220040297A1.

Target: CD3ε homodimer protein (human, UniProt P07766 23-126, limits assumed)
Sequence (P07766 23-126 limits assumed): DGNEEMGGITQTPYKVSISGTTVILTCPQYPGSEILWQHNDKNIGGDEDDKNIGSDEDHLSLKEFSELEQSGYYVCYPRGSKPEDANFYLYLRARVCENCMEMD
Experiment: SPR, immobilized CD3ε homodimer;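 note: biacore T200 surface plasmon resonance at 25 °C, antibody variants flowed as analytes over amine-coupled CD3ε homodimer on a CM4 chip, variant binding amount divided by that of GLS3000 antibody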
Entries and their ratio of amounts bound (vs GLS3000) values follow.
Please give only the number in your answer, with no unit.

Example entries and their recorded answers appear below.
GLS3000 S56N (antibody, name in Kabat numbering, V domains shown, one-arm format as m2) VH: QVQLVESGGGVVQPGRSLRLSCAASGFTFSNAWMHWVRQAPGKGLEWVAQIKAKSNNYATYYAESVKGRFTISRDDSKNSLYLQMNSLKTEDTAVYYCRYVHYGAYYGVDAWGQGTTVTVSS VL: DIVMTQSPLSLPVTPGEPASISCRSSQSLVHSNRNTYLHWYQQKPGQAPRLLIYKVSNRFNGVPDRFSGSGSGTDFTLKISRVEAEDVGVYYCGQGTQVPYTFGQGTKLEIK: 0.92
GLS3000 G89T (antibody, name in Kabat numbering, V domains shown, one-arm format as m2) VH: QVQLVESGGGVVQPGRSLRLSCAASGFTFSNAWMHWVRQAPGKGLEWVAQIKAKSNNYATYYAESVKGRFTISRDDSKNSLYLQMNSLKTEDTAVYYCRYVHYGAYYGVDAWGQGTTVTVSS VL: DIVMTQSPLSLPVTPGEPASISCRSSQSLVHSNRNTYLHWYQQKPGQAPRLLIYKVSNRFSGVPDRFSGSGSGTDFTLKISRVEAEDVGVYYCTQGTQVPYTFGQGTKLEIK: 1.03
GLS3000 H34N (antibody, name in Kabat numbering, V domains shown, one-arm format as m2) VH: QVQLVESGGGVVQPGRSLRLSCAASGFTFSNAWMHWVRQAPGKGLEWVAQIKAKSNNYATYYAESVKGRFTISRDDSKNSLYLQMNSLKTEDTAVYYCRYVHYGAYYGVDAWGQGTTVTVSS VL: DIVMTQSPLSLPVTPGEPASISCRSSQSLVHSNRNTYLNWYQQKPGQAPRLLIYKVSNRFSGVPDRFSGSGSGTDFTLKISRVEAEDVGVYYCGQGTQVPYTFGQGTKLEIK: 0.65
GLS3000 S27eA (antibody, name in Kabat numbering, V domains shown, one-arm format as m2) VH: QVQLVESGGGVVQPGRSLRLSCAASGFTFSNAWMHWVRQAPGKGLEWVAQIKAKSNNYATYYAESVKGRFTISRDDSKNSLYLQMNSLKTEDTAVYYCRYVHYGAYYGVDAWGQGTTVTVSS VL: DIVMTQSPLSLPVTPGEPASISCRSSQSLVHANRNTYLHWYQQKPGQAPRLLIYKVSNRFSGVPDRFSGSGSGTDFTLKISRVEAEDVGVYYCGQGTQVPYTFGQGTKLEIK: 1.03

# next binder below
Using the record for GLS3000 V27cY (antibody, name in Kabat numbering, V domains shown, one-arm format as m2) VH: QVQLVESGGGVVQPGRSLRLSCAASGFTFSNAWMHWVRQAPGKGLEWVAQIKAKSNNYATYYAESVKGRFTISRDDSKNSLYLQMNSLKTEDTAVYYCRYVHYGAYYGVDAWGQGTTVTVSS VL: DIVMTQSPLSLPVTPGEPASISCRSSQSLYHSNRNTYLHWYQQKPGQAPRLLIYKVSNRFSGVPDRFSGSGSGTDFTLKISRVEAEDVGVYYCGQGTQVPYTFGQGTKLEIK , report its ratio of amounts bound (vs GLS3000).
0.77
